Provide the recorded pIC50 for the entries that follow.
Target: protein-protein interaction between Kras and SOS1 (biotin-tagged human Kras loaded with GDP, His-tagged human SOS1) (Homo sapiens (Human), UniProt P01116, G12D)
Test: Protein-protein interaction inhibition between Kras and SOS1 (KrasG12D-SOS PPI) using AlphaScreen;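 also: kras produced in E. coli, Ni-coupled donor beads and streptavidin acceptor beads, excitation 680 nm with emission detected at 520–620 nm via singlet oxygen transfer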
Format: biochemical
Conditions: AlphaScreen; biotin-tagged human Kras loaded with GDP, His-tagged human SOS1; read-out: KRAS G12D-SOS PPI IC50
Numbered stars: 1 amine (or outer) side, 2 acyl side, 3 side chain; on linkers, the order of the positions; unused ones are H or OH. Bridge positions count the residues as written; N and C are the ends. Square brackets hold non-standard residues; d marks the D form. Peptide text beside a SMILES is read from it. * marks the point of attachment. hPhe(3,5-F2-4-CF3) = N[C@@H](CCc1cc(F)c(C(F)(F)F)c(F)c1)C(=O)O; hPhe(3-Cl-4-CF3) = N[C@@H](CCc1ccc(C(F)(F)F)c(Cl)c1)C(=O)O; NEtPhe(4-CF3) = CCN[C@@H](Cc1ccc(C(F)(F)F)cc1)C(=O)O; NMePhe(4-CF3) = CN[C@@H](Cc1ccc(C(F)(F)F)cc1)C(=O)O; NMePhe(4-Me) = CN[C@@H](Cc1ccc(C)cc1)C(=O)O; NMedβ3hAla = C[C@H](CC(=O)[*:2])N(C)[*:1]; NMeGly(cPent) = CN[C@H](C(=O)O)C1CCCC1; Pro(4,4-F2) = O=C(O)[C@@H]1CC(F)(F)CN1; NMeCha = CN[C@@H](CC1CCCCC1)C(=O)O; NMeGly(cPr) = CN[C@H](C(=O)O)C1CC1; Hyp = O=C(O)[C@@H]1C[C@@H](O)CN1; NMeChg = CN[C@H](C(=O)O)C1CCCCC1; NMeD = CN[C@@H](CC(=O)O)C(=O)O; NMeL = CN[C@@H](CC(C)C)C(=O)O; d(β3hA) = C[C@@H](N)CC(=O)O; NMeA = CN[C@@H](C)C(=O)O; Piperidide = C1CCN(*)CC1; dNMeA = CN[C@H](C)C(=O)O; Ac5c = NC1(C(=O)O)CCCC1; Aze = O=C(O)[C@@H]1CCN1; Ac4c = NC1(C(=O)O)CCC1; Sar = CNCC(=O)O
Answers are plain numbers, as −log10 of the molar value.

query: Assign pIC50 to the following record: CC[C@H](C)[C@@H]1NC(=O)[C@H](CC(C)C)N(C)C(=O)C[C@@H](C(=O)N2CCCCC2)N(C)C(=O)[C@H](C2CC2)N(C)C(=O)C2(CCCC2)NC(=O)[C@@H]2CCCN2C(=O)[C@H](CCc2ccc(C(F)(F)F)c(Cl)c2)NC(=O)CN(C)C(=O)[C@H](CC2CCCCC2)N(C)C(=O)[C@@H]2CCN2C(=O)[C@H](C)N(C)C1=O [Compound 1822] ([NMeL]I[NMeA][Aze][NMeCha][Sar][hPhe(3-Cl-4-CF3)]P[Ac5c][NMeGly(cPr)][NMeD]-Piperidide; lactam N-11)
result: 7.30

query: Output pIC50 of CC[C@H](C)[C@@H]1NC(=O)[C@H](CC(C)C)N(C)C(=O)C[C@@H](C)N(C)C(=O)[C@H](C2CCCCC2)N(C)C(=O)C2(CCC2)NC(=O)[C@@H]2CC(F)(F)CN2C(=O)[C@H](CCc2cc(F)c(C(F)(F)F)c(F)c2)NC(=O)CN(C)C(=O)[C@H](Cc2ccc(C(F)(F)F)cc2)N(C)C(=O)[C@@H]2CCN2C(=O)[C@H](C)N(C)C1=O [Compound 34] (cyclo([Ac4c][NMeChg][NMedβ3hAla][NMeL]I[NMeA][Aze][NMePhe(4-CF3)][Sar][hPhe(3,5-F2-4-CF3)][Pro(4,4-F2)]))
result: 7.13

query: Report pIC50 for CCO[C@@H]1C[C@H]2C(=O)NC3(CCCC3)C(=O)N(C)[C@@H](C3CCCC3)C(=O)N(C)[C@H](C)CC(=O)N(C)[C@@H](CC(C)C)C(=O)N[C@@H]([C@@H](C)CC)C(=O)N[C@@H](C)C(=O)N3CC[C@H]3C(=O)N(CC)[C@@H](Cc3ccc(C(F)(F)F)cc3)C(=O)N(C)CC(=O)N[C@@H](CCc3cc(F)c(C(F)(F)F)c(F)c3)C(=O)N2C1 [Compound 785] (cyclo(A[Aze][NEtPhe(4-CF3)][Sar][hPhe(3,5-F2-4-CF3)][Hyp](Et)[Ac5c][NMeGly(cPent)][NMedβ3hAla][NMeL]I))
result: 8.46

Please find the next molecule below.
query: Return the recorded pIC50 value; entry: CC[C@H](C)[C@@H]1NC(=O)[C@H](C)N(C)C(=O)C[C@@H](C)NC(=O)[C@H](C2CCCC2)N(C)C(=O)C2(CCCC2)NC(=O)[C@@H]2CCCN2C(=O)[C@H](CCc2ccc(C(F)(F)F)c(Cl)c2)NC(=O)[C@@H](C)N(C)C(=O)[C@H](Cc2ccc(C)cc2)N(C)C(=O)[C@@H]2CCN2C(=O)CN(C)C1=O [Compound 1461] (cyclo([Ac5c][NMeGly(cPent)][d(β3hA)][NMeA]I[Sar][Aze][NMePhe(4-Me)][dNMeA][hPhe(3-Cl-4-CF3)]P))
result: 7.43
